# SYSTEM NAME: RBM27 (RNA-binding protein 27) (Homo sapiens, UniProt Q9P2N5)
# Sequence (Q9P2N5 whole entry): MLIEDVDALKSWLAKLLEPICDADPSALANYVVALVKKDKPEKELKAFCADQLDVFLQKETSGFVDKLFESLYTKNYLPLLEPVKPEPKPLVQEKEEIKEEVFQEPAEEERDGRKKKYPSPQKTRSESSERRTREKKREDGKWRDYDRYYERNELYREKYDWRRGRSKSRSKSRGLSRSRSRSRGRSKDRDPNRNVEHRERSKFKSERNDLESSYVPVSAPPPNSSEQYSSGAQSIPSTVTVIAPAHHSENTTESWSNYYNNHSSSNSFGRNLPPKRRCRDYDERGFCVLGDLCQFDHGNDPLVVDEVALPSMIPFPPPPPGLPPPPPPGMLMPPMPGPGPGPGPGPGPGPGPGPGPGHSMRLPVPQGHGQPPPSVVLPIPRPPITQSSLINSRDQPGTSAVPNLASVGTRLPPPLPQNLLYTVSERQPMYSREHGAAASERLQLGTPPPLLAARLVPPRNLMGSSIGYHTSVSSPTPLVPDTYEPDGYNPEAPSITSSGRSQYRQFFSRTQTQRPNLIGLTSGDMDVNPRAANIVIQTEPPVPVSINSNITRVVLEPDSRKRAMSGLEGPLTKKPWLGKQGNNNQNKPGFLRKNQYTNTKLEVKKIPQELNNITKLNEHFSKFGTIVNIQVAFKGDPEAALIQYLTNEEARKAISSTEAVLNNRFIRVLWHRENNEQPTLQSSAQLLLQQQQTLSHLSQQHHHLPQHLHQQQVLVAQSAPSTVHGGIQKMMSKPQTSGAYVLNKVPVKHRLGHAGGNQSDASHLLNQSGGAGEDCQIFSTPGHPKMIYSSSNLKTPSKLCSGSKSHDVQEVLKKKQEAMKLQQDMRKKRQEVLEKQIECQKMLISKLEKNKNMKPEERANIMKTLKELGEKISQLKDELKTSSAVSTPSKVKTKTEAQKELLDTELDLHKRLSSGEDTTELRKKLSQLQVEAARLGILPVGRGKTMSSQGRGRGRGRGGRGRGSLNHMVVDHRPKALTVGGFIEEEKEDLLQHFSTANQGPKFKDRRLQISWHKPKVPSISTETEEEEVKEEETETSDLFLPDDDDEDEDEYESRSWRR
# EXPERIMENT DESCRIPTION: LiP-Quant, membrane enriched HeLa eluate
MEASUREMENT NAME: EC50

| STRUCTURE NOTATION | REPORTED MEASUREMENT |
| --- | --- |
| C[C@@H]1O[C@@H](O[C@@H]2C=C3CC[C@@H]4[C@H](CC[C@]5(C)[C@@H](c6ccc(=O)oc6)CC[C@]45O)[C@@]3(C)CC2)[C@H](O)[C@H](O)[C@H]1O | 17.3 nM |

---

# SYSTEM NAME: ATP1A1 (Sodium/potassium-transporting ATPase subunit alpha-1) (Homo sapiens, UniProt P05023)
# EXPERIMENT DESCRIPTION: LiP-Quant, membrane enriched HeLa eluate
pEC50: −log10 of the molar value.
MEASUREMENT NAME: pEC50

| COMPOUND | MEASUREMENT NAME | REPORTED MEASUREMENT |
| --- | --- | --- |
| C[C@@H]1O[C@@H](O[C@@H]2C=C3CC[C@@H]4[C@H](CC[C@]5(C)[C@@H](c6ccc(=O)oc6)CC[C@]45O)[C@@]3(C)CC2)[C@H](O)[C@H](O)[C@H]1O [proscillaridin A] | pEC50 | 7.79 |
